- System: Escherichia coli TOP10
- experiment_summary: shrunken log2 fold change of peptide-encoding DNA abundance (4.5 h post-induction vs induction); higher = less antimicrobial activity (less host growth inhibition)
- measurement_conditions: time post-induction: 4.5 h; library: site-saturation at positions 5, 18, 19, 20
Outcome: Met for shrunken log2 fold change of at least 0.2; Not met for anything lower.

Field: example entries. Status: answers known.
RRIRRRPPRLPRPRPRPTAIPRP ... Met
RRIRIRPPRLPRPRPRPIPMPRP ... Not met
RRIRLRPPRLPRPRPRPRYEPRP ... Not met
RRIRGRPPRLPRPRPRPVCEPRP ... Met

Hi team, for "RRIRSRPPRLPRPRPRPMHCPRP" , is the recorded shrunken log2 fold change at or above 0.2?
Met

Hi team, for "RRIRTRPPRLPRPRPRPDCGPRP" , is the recorded shrunken log2 fold change at or above 0.2?
Met

Hi team, for "RRIRDRPPRLPRPRPRPFRYPRP" , is the recorded shrunken log2 fold change at or above 0.2?
Not met

Hi team, for "RRIRSRPPRLPRPRPRPMTKPRP" , is the recorded shrunken log2 fold change at or above 0.2?
Not met

---

- Tested on: Escherichia coli TOP10
- experiment_summary: shrunken log2 fold change of peptide-encoding DNA abundance (4.5 h post-induction vs induction); higher = less antimicrobial activity (less host growth inhibition)
- measurement_conditions: time post-induction: 4.5 h; library: site-saturation at positions 5, 18, 19, 20
metric_name: shrunken log2 fold change
Lab note: record just the number, no unit beside it.

RRIRNRPPRLPRPRPRPDQKPRP ... -0.000687
RRIRTRPPRLPRPRPRPIPAPRP ... 0.0613
RRIRYRPPRLPRPRPRPESVPRP ... -0.316
RRIRIRPPRLPRPRPRPFENPRP ... -0.00783
RRIRGRPPRLPRPRPRPDIKPRP ... 0.547
RRIRDRPPRLPRPRPRPKMSPRP ... -0.0119
RRIRERPPRLPRPRPRPIAYPRP ... -0.0148
RRIRSRPPRLPRPRPRPLHCPRP ... 0.0547
RRIRFRPPRLPRPRPRPGEEPRP ... 0.0793
RRIRYRPPRLPRPRPRPHHLPRP ... -0.329

# shrunken log2 fold change lookup, item "RRIRPRPPRLPRPRPRPWYIPRP"
-0.472

# shrunken log2 fold change lookup, item "RRIRPRPPRLPRPRPRPESYPRP"
-0.00116

# shrunken log2 fold change lookup, item "RRIRCRPPRLPRPRPRPQGPPRP"
0.353

# shrunken log2 fold change lookup, item "RRIRGRPPRLPRPRPRPHLVPRP"
0.294

# shrunken log2 fold change lookup, item "RRIRVRPPRLPRPRPRPGVNPRP"
0.101

---

- Tested on: Escherichia coli TOP10
- experiment_summary: shrunken log2 fold change of peptide-encoding DNA abundance (4.5 h post-induction vs induction); higher = less antimicrobial activity (less host growth inhibition)
- measurement_conditions: time post-induction: 4.5 h; library: site-saturation at positions 5, 18, 19, 20
Classes by shrunken log2 fold change: low = under -0.2, moderate = from -0.2 up to 0.1, high = 0.1 and over

Field: example entries. Status: answers known.
RRIRCRPPRLPRPRPRPPYQPRP ... moderate
RRIRLRPPRLPRPRPRPMDPPRP ... moderate
RRIRRRPPRLPRPRPRPPFWPRP ... high
RRIRPRPPRLPRPRPRPPTTPRP ... high
RRIRTRPPRLPRPRPRPWKEPRP ... moderate

In plain terms, what class is "RRIRYRPPRLPRPRPRPLCQPRP" ?
low

In plain terms, what class is "RRIRHRPPRLPRPRPRPLQYPRP" ?
low

In plain terms, what class is "RRIRRRPPRLPRPRPRPFRRPRP" ?
high

In plain terms, what class is "RRIRCRPPRLPRPRPRPVRGPRP" ?
high

In plain terms, what class is "RRIRFRPPRLPRPRPRPTGIPRP" ?
low

In plain terms, what class is "RRIRCRPPRLPRPRPRPCICPRP" ?
moderate

In plain terms, what class is "RRIRYRPPRLPRPRPRPQWDPRP" ?
low

In plain terms, what class is "RRIRPRPPRLPRPRPRPPCVPRP" ?
high

In plain terms, what class is "RRIRERPPRLPRPRPRPSSHPRP" ?
moderate

In plain terms, what class is "RRIRFRPPRLPRPRPRPHLSPRP" ?
low

---

Listed sequences paired with reported shrunken log2 fold change
- Test system: Escherichia coli TOP10
- experiment_summary: shrunken log2 fold change of peptide-encoding DNA abundance (4.5 h post-induction vs induction); higher = less antimicrobial activity (less host growth inhibition)
- measurement_conditions: time post-induction: 4.5 h; library: site-saturation at positions 5, 18, 19, 20

RRIRVRPPRLPRPRPRPTMGPRP ... 0.04

# shrunken log2 fold change lookup, item "RRIRNRPPRLPRPRPRPVVIPRP"
-0.077

# shrunken log2 fold change lookup, item "RRIRTRPPRLPRPRPRPRVSPRP"
0.0622

# shrunken log2 fold change lookup, item "RRIRGRPPRLPRPRPRPKQTPRP"
0.175

# shrunken log2 fold change lookup, item "RRIRPRPPRLPRPRPRPADDPRP"
0.118

# shrunken log2 fold change lookup, item "RRIRRRPPRLPRPRPRPLHYPRP"
0.239

# shrunken log2 fold change lookup, item "RRIRYRPPRLPRPRPRPSQLPRP"
-0.506

# shrunken log2 fold change lookup, item "RRIRTRPPRLPRPRPRPDVCPRP"
0.11

# shrunken log2 fold change lookup, item "RRIRWRPPRLPRPRPRPCLIPRP"
-0.151

# shrunken log2 fold change lookup, item "RRIRTRPPRLPRPRPRPIKVPRP"
0.0474

# shrunken log2 fold change lookup, item "RRIRGRPPRLPRPRPRPCINPRP"
0.573

# shrunken log2 fold change lookup, item "RRIRERPPRLPRPRPRPYFSPRP"
-0.247

# shrunken log2 fold change lookup, item "RRIRHRPPRLPRPRPRPGPFPRP"
-0.225

# shrunken log2 fold change lookup, item "RRIRGRPPRLPRPRPRPYTDPRP"
-0.417

# shrunken log2 fold change lookup, item "RRIRQRPPRLPRPRPRPNEYPRP"
-1.18

# shrunken log2 fold change lookup, item "RRIRNRPPRLPRPRPRPIVSPRP"
-0.00673

# shrunken log2 fold change lookup, item "RRIRPRPPRLPRPRPRPGGRPRP"
0.461

# shrunken log2 fold change lookup, item "RRIRFRPPRLPRPRPRPYMCPRP"
-0.0146

# shrunken log2 fold change lookup, item "RRIRNRPPRLPRPRPRPNFNPRP"
-0.734

# shrunken log2 fold change lookup, item "RRIRKRPPRLPRPRPRPRAWPRP"
0.389

---

Listed sequences paired with reported shrunken log2 fold change
- Tested on: Escherichia coli TOP10
- experiment_summary: shrunken log2 fold change of peptide-encoding DNA abundance (4.5 h post-induction vs induction); higher = less antimicrobial activity (less host growth inhibition)
- measurement_conditions: time post-induction: 4.5 h; library: site-saturation at positions 5, 18, 19, 20
Lab note: record just the number, no unit beside it.

Some entries whose results are on file:
RRIRIRPPRLPRPRPRPPKNPRP ... -0.159
RRIRARPPRLPRPRPRPCHLPRP ... -0.171
RRIRGRPPRLPRPRPRPVWWPRP ... 0.997

Form field - read-out: shrunken log2 fold change; system: Escherichia coli TOP10; submitted item: "RRIRARPPRLPRPRPRPFFEPRP"
0.423

Form field - read-out: shrunken log2 fold change; system: Escherichia coli TOP10; submitted item: "RRIRFRPPRLPRPRPRPKHDPRP"
-0.168

Form field - read-out: shrunken log2 fold change; system: Escherichia coli TOP10; submitted item: "RRIRGRPPRLPRPRPRPTSDPRP"
0.931

Form field - read-out: shrunken log2 fold change; system: Escherichia coli TOP10; submitted item: "RRIRGRPPRLPRPRPRPQDMPRP"
0.0811

Form field - read-out: shrunken log2 fold change; system: Escherichia coli TOP10; submitted item: "RRIRERPPRLPRPRPRPMTDPRP"
-0.131

Form field - read-out: shrunken log2 fold change; system: Escherichia coli TOP10; submitted item: "RRIRERPPRLPRPRPRPIIDPRP"
-0.0746

Form field - read-out: shrunken log2 fold change; system: Escherichia coli TOP10; submitted item: "RRIRVRPPRLPRPRPRPTLWPRP"
0.259

Form field - read-out: shrunken log2 fold change; system: Escherichia coli TOP10; submitted item: "RRIRTRPPRLPRPRPRPIFYPRP"
-0.315

---

Listed sequences paired with reported shrunken log2 fold change
- Test system: Escherichia coli TOP10;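 note: peptides expressed intracellularly from a pBAD plasmid library in pooled LB shake-flask culture, induced with 0.3% L-arabinose, DNA abundance read by NGS, three biological replicates, DESeq2 with apeglm shrinkage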
- experiment_summary: shrunken log2 fold change of peptide-encoding DNA abundance (4.5 h post-induction vs induction); higher = less antimicrobial activity (less host growth inhibition)
- measurement_conditions: time post-induction: 4.5 h; library: site-saturation at positions 5, 18, 19, 20
Lab note: record just the number, no unit beside it.

Some entries whose results are on file:
RRIRTRPPRLPRPRPRPYILPRP ... -0.0244
RRIRKRPPRLPRPRPRPAQDPRP ... 0.679
RRIRLRPPRLPRPRPRPNSWPRP ... -0.0901

# shrunken log2 fold change lookup, item "RRIRQRPPRLPRPRPRPICGPRP"
-0.0167

# shrunken log2 fold change lookup, item "RRIRERPPRLPRPRPRPLIPPRP"
-0.463
